# measured.on: T1, SWSAP1 (hSWS1-SWSAP1, WT);hSWS1 (Homo sapiens;Homo sapiens, UniProt Q6NVH7;Q19AV6 22-250;1-140, |)
# T1 sequence 1: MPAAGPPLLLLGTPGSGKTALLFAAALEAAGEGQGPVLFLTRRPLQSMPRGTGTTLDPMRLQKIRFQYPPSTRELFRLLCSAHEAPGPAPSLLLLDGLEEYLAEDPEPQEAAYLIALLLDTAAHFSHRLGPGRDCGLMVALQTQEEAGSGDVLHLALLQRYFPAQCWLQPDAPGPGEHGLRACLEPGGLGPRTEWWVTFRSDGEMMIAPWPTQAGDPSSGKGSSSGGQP
# T1 sequence 2: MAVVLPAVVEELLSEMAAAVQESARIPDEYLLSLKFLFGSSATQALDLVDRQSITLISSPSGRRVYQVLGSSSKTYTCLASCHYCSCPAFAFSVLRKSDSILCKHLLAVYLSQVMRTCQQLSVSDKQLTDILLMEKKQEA
# test.protocol: fluorescence polarization; no nucleotide; FPA: 5 nM 6-FAM DNA, 37 C, 2 mM nucleotide where stated (buffer not given in material); EMSA: 0.05 uM 6-FAM DNA, 5%/15% native PAGE; RAD51 filaments: 2 mM ATP
# setup.conditions: protein: recombinant;recombinant; tags: N-terminal 6xHis-TEV, cleaved;none; copies: 1;1; label: 5' 6-FAM on strand 1; blunt
attribute.measured: Kd (µM)
Field: numeric (µM). Do not append units.

Which value of Kd has been reported for ds26 (dsDNA) DNA 1: ACTGCCCTTACAGCACAGCGGTTTTT DNA 2: AAAAACCGCTGTGCTGTAAGGGCAGT in the records?
18.8

Reported Kd, binder ds21 (dsDNA) DNA 1: ACTTACAGCACAGCGGTTTTT DNA 2: AAAAACCGCTGTGCTGTAAGT : ____
43.7

The origin of these recorded values is paper PMC12167799.
